MEASUREMENT DESCRIPTION: Antagonist activity at GP6 in human platelet assessed as reduction in CRP-induced platelet-aggregation preincubated for 10 mins followed by collagen stimulation by aggregometry
ENDPOINT: pIC50
Scale: pIC50 equals -log10([C]), with [C] in mol/L.

Problem: # lookup: pIC50 of `C=C1C(=O)[C@@]23[C@H](O)C[C@@H]4C(C)(C)C(=O)CC[C@@]4(C)[C@@H]2CC[C@@H]1[C@H]3O`
Result: 8.70

Attribution: BindingDB's records for doi:10.1021/acs.jmedchem.0c00262
